Measured values drawn from PubChem BioAssay AID1159580 for this set.

Assay: chemical genetic growth profiling, strain panel (AID 1159580);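 note: tested at 20 µM; growth read once vehicle control cultures reached saturation at 30 °C; 1 = growth at the plate median or of vehicle wells; lower values mean less growth of the strain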
Details: S. cerevisiae deletion strains, growth OD, locus YGL253W, strain hxk2, active compounds read low
Hit rate of the full screen: of about 5,500 compounds, about 2,000 (36%) were called active. Another 18% or so got no clear call; they are omitted. This is one part of the list.
Criterion: normalized growth strictly under 1. Met: rule met. Not met: rule not met.

Request: Hi there! Is normalized growth for O=C(O)c1cc(O)c(O)c(O)c1 below 1, do you know?
Response: rule not met

Request: Please give the result for COc1ccc(/C=C/C(=O)O)cc1OC too.
Response: rule met

Request: Please give the result for c1cc2c(cc1[C@H]1OC[C@H]3[C@@H]1CO[C@H]3c1ccc3c(c1)OCO3)OCO2 too.
Response: rule met

====

Test: chemical genetic growth profiling, strain panel (AID 1159580);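 note: tested at 20 µM; growth read once vehicle control cultures reached saturation at 30 °C; 1 = growth at the plate median or of vehicle wells; lower values mean less growth of the strain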
Conditions: S. cerevisiae deletion strains, growth OD, locus YHR082C, strain KSP1, active compounds read low
About 2,000 (36%) of roughly 5,500 compounds were called active. Another 18% or so got no clear call; they are omitted. The list shows a part of the results.
Would you kindly list normalized growth for each of these compounds?
Number, no unit, nothing else.

Request: What does the record list as normalized growth for CC(C)(O)C#Cc1ccc(/C=N\Nc2ccccc2)cc1 ?
Response: 0.795

Request: Please give the result for CC12CC[C@@H](O)CC1=CC[C@@H]1C2CCC2(C)C(=O)CC[C@@H]12 (some centres undefined) too.
Response: 0.95

Request: Please give the result for Cc1nc(C(F)(F)F)c(C(=O)O/N=C(/N)c2ccc(Cl)cc2)s1 too.
Response: 1.14

Request: Please give the result for O=C(CO/N=C\c1ccc(Cl)cc1Cl)NNC(=S)Nc1cc(Cl)ccc1Cl too.
Response: 1.14

====

Assay: chemical genetic growth profiling, strain panel (AID 1159580);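 note: tested at 20 µM; growth read once vehicle control cultures reached saturation at 30 °C; 1 = growth at the plate median or of vehicle wells; lower values mean less growth of the strain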
Settings: S. cerevisiae deletion strains, growth OD, locus YLR384C, strain iki3, active compounds read low
Screen size: about 5,500 compounds; about 2,000 (36%) were called active. Roughly 18% stayed inconclusive and do not appear here. The list shows a part of the results.
Would you kindly list normalized growth for each of these compounds?
Number, no unit, nothing else.

Request: What does the record list as normalized growth for CN1CCc2cccc3c2C1Cc1ccc(O)c(O)c1-3 (stereo not given) ?
Response: 1

Request: Please give the result for C[C@@H]1C[C@@H]([C@H](O)CC2CC(=O)NC(=O)C2)C(=O)[C@@H](C)C1 too.
Response: 0.0596

Request: Please give the result for N[C@@H](CCC(=O)N[C@@H](CCSC(CC(=O)O)C(=O)O)C(=O)NCC(=O)O)C(=O)O (stereo not given in full) too.
Response: 0.964

Request: Please give the result for c1ccc2[nH]c(-c3cscn3)nc2c1 too.
Response: 1.01

Request: Please give the result for Nc1nc2ncc(CNc3ccc(C(=O)N[C@@H](CCC(=O)O)C(=O)O)cc3)nc2c(=O)[nH]1 too.
Response: 1.01

Request: Please give the result for O=C(O)c1cc(O)c(O)c(O)c1 too.
Response: 1.02

Request: Please give the result for NC(=O)c1cc[n+](CC2=C(C(=O)O)N3C(=O)C(NC(=O)C(c4ccccc4)S(=O)(=O)[O-])C3SC2)cc1 (stereo not given) too.
Response: 0.984

Request: Please give the result for Cc1cccc(CN2CCN(C(c3ccccc3)c3ccc(Cl)cc3)CC2)c1 (stereo not given) too.
Response: 0.992

Request: Please give the result for CCCc1cc(OC)c2c(c1)OCO2 too.
Response: 0.995

Request: Please give the result for COc1ccc(/C=C/c2cc(O)cc(O)c2)cc1 too.
Response: 1.01

Request: Please give the result for Oc1ccc(/C=C/c2cc(O)cc(O)c2)cc1 too.
Response: 0.996

Request: Please give the result for O=C(/C=C/c1ccc(O)c(O)c1)O[C@@H]1C[C@](O)(C(=O)O)C[C@@H](O)[C@H]1O too.
Response: 0.96

Request: Please give the result for CC(=O)O[C@H]1CC[C@@]2(C)C(=CCC3C2CC[C@@]2(C)C3CC[C@@H]2C(C)CCCC(C)C)C1 (stereo not given in full) too.
Response: 1.01

Request: Please give the result for COc1ccc(CN(CCN(C)C)c2ncccn2)cc1 too.
Response: 1.02

Request: Please give the result for CN(Cc1cnc2nc(N)nc(N)c2n1)c1ccc(C(=O)NC(CCC(=O)O)C(=O)O)cc1 (stereo not given) too.
Response: 0.88

====

Assay: chemical genetic growth profiling, strain panel (AID 1159580);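 note: tested at 20 µM; growth read once vehicle control cultures reached saturation at 30 °C; 1 = growth at the plate median or of vehicle wells; lower values mean less growth of the strain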
Settings: S. cerevisiae deletion strains, growth OD, locus YHR030C, strain SLT2
About 2,000 (36%) of roughly 5,500 compounds were called active. Inconclusive results (about 18%) are left out. No stated cut-off is given here; in the data, active means normalized growth mostly below about 0.91 (no sharp cut-off); inconclusive means no clear call, values can overlap the other calls; inactive means mostly above about 0.92. This is one part of the list.
Select the matching outcome among active, inactive

Request: Assay result, entry CC[C@]1(O)CC2CN(CCc3c([nH]c4ccccc34)[C@@](C(=O)OC)(c3cc4c(cc3OC)N(C=O)[C@H]3[C@@](O)(C(=O)OC)[C@H](OC(C)=O)[C@]5(CC)C=CCN6CC[C@]43[C@@H]65)C2)C1 (stereo partly specified) — outcome?
Response: inactive

Request: Please give the result for O=C(NC(Cc1cc(=O)[nH]c2ccccc12)C(=O)O)c1ccc(Cl)cc1 (stereo unspecified) too.
Response: inactive

Request: Please give the result for CCOP(=S)(OCC)SCSP(=S)(OCC)OCC too.
Response: inactive

Request: Please give the result for CCOP(=S)(OCC)SCCSCC too.
Response: inactive

Request: Please give the result for O=C1NC(c2c(F)cccc2Cl)Nc2ccccc21 (stereo unspecified) too.
Response: inactive

Request: Please give the result for CC(=O)C1=C(O)C2C3c4c[nH]c5cccc(c45)CC3C(C)(C)N2C1=O (stereo unspecified) too.
Response: inactive

Request: Please give the result for CCOP(=S)(OCC)SCSCC too.
Response: inactive

Request: Please give the result for COP(=S)(OC)Oc1ccc(SC)c(C)c1 too.
Response: inactive

Request: Please give the result for CCCSP(=O)(OCC)SCCC too.
Response: inactive

Request: Please give the result for CCOC(=O)CCc1cc(N=Cc2cc(Cl)cc(Cl)c2O)c(O)c(N=Cc2cc(Cl)cc(Cl)c2O)c1 too.
Response: active

Request: Please give the result for CCCc1cc(OC)c2c(c1)OCO2 too.
Response: inactive

Request: Please give the result for O=C(Nc1cc(C(F)(F)F)cc(C(F)(F)F)c1)C(Sc1ccccn1)c1ccccc1 (stereo unspecified) too.
Response: inactive

Request: Please give the result for CC(=O)Oc1cc(C)c2c(c1C=O)Oc1c(c(C)c(OC(C)=O)c3c1C(OC(C)=O)OC3=O)OC2=O (stereo unspecified) too.
Response: inactive

Request: Please give the result for N/C(=N/OC(=O)c1ccc(Cl)cc1)c1ccc(F)cc1F too.
Response: active

Request: Please give the result for O=C(Nc1cccc(C(F)(F)F)c1)Oc1ccc(F)cc1Cl too.
Response: active

Request: Please give the result for COc1cc(C(=O)O)c(O)c2c1OCO2 too.
Response: inactive

Request: Please give the result for N[C@@H](CCC(=O)N[C@@H](CCSC(CC(=O)O)C(=O)O)C(=O)NCC(=O)O)C(=O)O (stereo partly specified) too.
Response: inactive

Request: Please give the result for CC(C)c1nc2ccccc2[nH]1 too.
Response: inactive

Request: Please give the result for CCOC(=O)C(C)(N)Cc1ccc(O)c(O)c1 (stereo unspecified) too.
Response: inactive

Request: Please give the result for C[C@]12CCC3c4ccc(OS(=O)(=O)O)cc4CCC3C1CCC2=O (stereo partly specified) too.
Response: inactive

Request: Please give the result for O=c1[nH]cnc2ccc(Br)cc12 too.
Response: inactive

Request: Please give the result for CC1(C)O[C@@H]2[C@@H](CO[C@@]3(COS(N)(=O)=O)OC(C)(C)O[C@@H]23)O1 too.
Response: inactive

Request: Please give the result for C[C@](N)(Cc1ccc(O)cc1)C(=O)O too.
Response: inactive

Request: Please give the result for O=C1CNC(=S)N1CCc1ccccn1 too.
Response: inactive

Request: Please give the result for COC(=O)c1ccc(C#Cc2ccccc2)o1 too.
Response: active

Request: Please give the result for CC[C@@H](C(=O)O)[C@@H]1O[C@@H]([C@@H](C)[C@H](O)[C@H](C)C(=O)[C@H](CC)[C@H]2O[C@]3(C=C[C@@H](O)[C@]4(CC[C@@](C)(C5CC[C@](O)(CC)[C@H](C)O5)O4)O3)[C@H](C)C[C@@H]2C)[C@@H](C)C[C@H]1C (stereo partly specified) too.
Response: active

Request: Please give the result for Cc1nc(C(F)(F)F)c(C(=O)O/N=C(/N)c2ccc(Cl)cc2)s1 too.
Response: inactive

Request: Please give the result for CSc1c(C#N)c(-c2ccc(Cl)cc2)nn1C(=O)c1ccccc1Cl too.
Response: inactive

Request: Please give the result for N/C(=N\OC(=O)c1ccno1)c1ccc(C(F)(F)F)cc1 too.
Response: inactive

Request: Please give the result for CSc1cccc(N2C(=O)CC(c3c(Cl)cccc3Cl)CC2=O)c1 too.
Response: inactive

Request: Please give the result for CO[C@@H]1C[C@@H](C[C@H]2CC[C@H](C)[C@H]([C@@H](C)C(=O)O)O2)O[C@]2(O[C@](C)([C@H]3CC[C@@](C)(C4O[C@@H](C5O[C@@](O)(CO)[C@H](C)C[C@@H]5C)C[C@@H]4C)O3)C[C@H]2C)[C@@H]1C (stereo partly specified) too.
Response: inactive
